Consider the following substances; for each one, report its Duodenum degradation. Relative stability vs. A14E, B25H, desB30 human insulin.
Tested on: duodenum lumen enzymes
TEST_CONDITIONS: pH 7.4
Starred links: 1 amine or outer side, 2 acyl side, 3 side chain; linkers in the order of their positions; H or OH if unused. Positions of bridges follow the written chain, without caps; N, C: chain ends. Groups on a side chain read outwards from the residue. Chains are numbered I, II in the order given. No end group written: not given here. *: point of attachment. Phe(Nα-CONH2) = NC(=O)N[C@@H](Cc1ccccc1)C(=O)*; C20 diacid = O=C(O)CCCCCCCCCCCCCCCCCCC(=O)*; C18 diacid = O=C(O)CCCCCCCCCCCCCCCCC(=O)*; C16 diacid = O=C(O)CCCCCCCCCCCCCCC(=O)*; NMe2Phe = CN(C)[C@@H](Cc1ccccc1)C(=O)*; γGlu = O=C(O)[C@H](CCC(=O)[*:2])N[*:1]; X1 = CCN(CC)[C@@H](Cc1ccccc1)C(=O)*; Hydantoyl = NC(=O)NCC(=O)*; AEEA = NCCOCCOCC(=O)O; Me2Gly = CN(C)CC(=O)*; X2 = CCN(CC)CC(=O)*
Numbers only.

SUBSTANCE	TARGET_OR_SYSTEM	RESULT
I: {Phe(Nα-CONH2)}-VNQHLCGSHLVEALYLVCGERGFHYTPK([γGlu-C16 diacid]) / II: Hydantoyl-IVEQCCTSICSLEQLENYCN (disulfide I:6-II:6, I:18-II:19, II:5-II:10) [Example 13]	duodenum lumen enzymes	1.5

Hey, can you go through the list below and give me Duodenum degradation. Relative stability vs. A14E, B25H, desB30 human insulin for every item?
1. I: {Phe(Nα-CONH2)}-VNQHLCGSHLVEALYLVCGERGFFYPK([γGlu-C18 diacid]) / II: Hydantoyl-IVEQCCTSICSLEQLENYCN (disulfide I:6-II:6, I:18-II:19, II:5-II:10) [Example 23]
2. I: X1-VNQHLCGSHLVEALYLVCGERGFHYTPK([AEEA-AEEA-γGlu-C18 diacid]) / II: X2-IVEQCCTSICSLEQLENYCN (disulfide I:6-II:6, I:18-II:19, II:5-II:10) [Example 2]
3. I: {Phe(Nα-CONH2)}-VNQHLCGSHLVEALYLVCGERGFHYPK([AEEA-AEEA-γGlu-C18 diacid]) / II: Hydantoyl-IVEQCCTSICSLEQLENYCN (disulfide I:6-II:6, I:18-II:19, II:5-II:10) [Example 18]
4. I: NMe2Phe-VNQHLCGSHLVEALHLVCGERGFHYTPK([AEEA-AEEA-γGlu-C20 diacid]) / II: Me2Gly-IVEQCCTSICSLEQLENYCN (disulfide I:6-II:6, I:18-II:19, II:5-II:10) [Example 7]
5. I: {Phe(Nα-CONH2)}-VNQHLCGSHLVEALYLVCGERGFFYPK([γGlu-C20 diacid]) / II: Hydantoyl-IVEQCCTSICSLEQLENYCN (disulfide I:6-II:6, I:18-II:19, II:5-II:10) [Example 21]
6. I: {Phe(Nα-CONH2)}-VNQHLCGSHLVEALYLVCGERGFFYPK([AEEA-AEEA-γGlu-C20 diacid]) / II: Hydantoyl-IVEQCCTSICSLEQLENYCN (disulfide I:6-II:6, I:18-II:19, II:5-II:10) [Example 29]

1. 6.6
2. 0.8
3. 5.6
4. 0.4
5. 6.2
6. 3.0

// each substance listed below needs its Duodenum degradation. Relative stability vs. A14E, B25H, desB30 human insulin
1. I: {Phe(Nα-CONH2)}-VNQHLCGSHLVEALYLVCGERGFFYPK([AEEA-AEEA-γGlu-C16 diacid]) / II: Hydantoyl-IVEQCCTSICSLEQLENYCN (disulfide I:6-II:6, I:18-II:19, II:5-II:10) [Example 20]
2. I: {Phe(Nα-CONH2)}-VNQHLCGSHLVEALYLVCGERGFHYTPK([γGlu-C20 diacid]) / II: Hydantoyl-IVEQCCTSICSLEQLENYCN (disulfide I:6-II:6, I:18-II:19, II:5-II:10) [Example 14]

1: 1.8; 2: 0.9

* * *

Give measured Duodenum degradation. Relative stability vs. A14E, B25H, desB30 human insulin for each item. Keep answers brief.
Tested on: duodenum lumen enzymes
PROTOCOL_DESCRIPTION: Degradation of insulin analogs using duodenum lumen enzymes
TEST_CONDITIONS: degradation half time divided by that of reference insulin; rat duodenum enzymes, pH 7.4, 37° C.
Starred links: 1 amine or outer side, 2 acyl side, 3 side chain; linkers in the order of their positions; H or OH if unused. Positions of bridges follow the written chain, without caps; N, C: chain ends. Groups on a side chain read outwards from the residue. Chains are numbered I, II in the order given. No end group written: not given here. *: point of attachment. Phe(Nα-CONH2) = NC(=O)N[C@@H](Cc1ccccc1)C(=O)*; C20 diacid = O=C(O)CCCCCCCCCCCCCCCCCCC(=O)*; C18 diacid = O=C(O)CCCCCCCCCCCCCCCCC(=O)*; C16 diacid = O=C(O)CCCCCCCCCCCCCCC(=O)*; NMe2Phe = CN(C)[C@@H](Cc1ccccc1)C(=O)*; γGlu = O=C(O)[C@H](CCC(=O)[*:2])N[*:1]; Hydantoyl = NC(=O)NCC(=O)*; AEEA = NCCOCCOCC(=O)O; Me2Gly = CN(C)CC(=O)*
Give bare numbers.

Observe how each entry below is paired with its result.
SUBSTANCE	RESULT
I: {Phe(Nα-CONH2)}-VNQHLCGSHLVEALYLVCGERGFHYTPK([AEEA-AEEA-γGlu-C18 diacid]) / II: Hydantoyl-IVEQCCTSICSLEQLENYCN (disulfide I:6-II:6, I:18-II:19, II:5-II:10) [Example 12]	1.5
I: NMe2Phe-VNQHLCGSHLVEALHLVCGERGFHYTPK([γGlu-C16 diacid]) / II: Me2Gly-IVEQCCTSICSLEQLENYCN (disulfide I:6-II:6, I:18-II:19, II:5-II:10) [Example 3]	3.1
I: {Phe(Nα-CONH2)}-VNQHLCGSHLVEALHLVCGERGFHYTPK([AEEA-AEEA-γGlu-C20 diacid]) / II: Hydantoyl-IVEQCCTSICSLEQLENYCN (disulfide I:6-II:6, I:18-II:19, II:5-II:10) [Example 16]	0.4
I: {Phe(Nα-CONH2)}-VNQHLCGSHLVEALHLVCGERGFFYPK([AEEA-AEEA-γGlu-C20 diacid]) / II: Hydantoyl-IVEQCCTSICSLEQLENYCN (disulfide I:6-II:6, I:18-II:19, II:5-II:10) [Example 22]	7.7

Attention now shifts to the item below.
Quickly give me recorded Duodenum degradation. Relative stability vs. A14E, B25H, desB30 human insulin for I: NMe2Phe-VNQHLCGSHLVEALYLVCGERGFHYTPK([AEEA-AEEA-γGlu-C18 diacid]) / II: Me2Gly-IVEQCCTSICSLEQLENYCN (disulfide I:6-II:6, I:18-II:19, II:5-II:10) [Example 1]
1.2

* * *

TARGET_OR_SYSTEM: human insulin receptor (IR-A) (Homo sapiens, UniProt P06213)
Sequence (P06213 28-746 isoform P06213-2 limits assumed): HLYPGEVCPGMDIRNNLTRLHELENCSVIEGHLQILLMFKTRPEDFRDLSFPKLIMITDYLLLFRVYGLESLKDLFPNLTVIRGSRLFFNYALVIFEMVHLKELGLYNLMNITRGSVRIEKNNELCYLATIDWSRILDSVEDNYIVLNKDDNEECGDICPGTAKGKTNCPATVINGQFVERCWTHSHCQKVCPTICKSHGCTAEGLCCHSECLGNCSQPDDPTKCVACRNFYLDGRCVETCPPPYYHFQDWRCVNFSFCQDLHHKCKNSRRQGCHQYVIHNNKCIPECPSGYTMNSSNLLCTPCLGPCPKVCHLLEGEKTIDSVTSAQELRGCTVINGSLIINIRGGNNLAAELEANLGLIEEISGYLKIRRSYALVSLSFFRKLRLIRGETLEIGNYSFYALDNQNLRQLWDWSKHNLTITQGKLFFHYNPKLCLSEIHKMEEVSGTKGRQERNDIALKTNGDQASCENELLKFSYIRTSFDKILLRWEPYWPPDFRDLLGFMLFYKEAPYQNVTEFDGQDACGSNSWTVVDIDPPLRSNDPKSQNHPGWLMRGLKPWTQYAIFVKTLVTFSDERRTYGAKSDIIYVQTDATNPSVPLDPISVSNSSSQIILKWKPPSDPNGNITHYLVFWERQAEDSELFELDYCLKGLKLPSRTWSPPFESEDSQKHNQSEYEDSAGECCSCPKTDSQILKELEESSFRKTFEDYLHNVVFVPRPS
Sequence (P06213 763-1382 partner limits assumed): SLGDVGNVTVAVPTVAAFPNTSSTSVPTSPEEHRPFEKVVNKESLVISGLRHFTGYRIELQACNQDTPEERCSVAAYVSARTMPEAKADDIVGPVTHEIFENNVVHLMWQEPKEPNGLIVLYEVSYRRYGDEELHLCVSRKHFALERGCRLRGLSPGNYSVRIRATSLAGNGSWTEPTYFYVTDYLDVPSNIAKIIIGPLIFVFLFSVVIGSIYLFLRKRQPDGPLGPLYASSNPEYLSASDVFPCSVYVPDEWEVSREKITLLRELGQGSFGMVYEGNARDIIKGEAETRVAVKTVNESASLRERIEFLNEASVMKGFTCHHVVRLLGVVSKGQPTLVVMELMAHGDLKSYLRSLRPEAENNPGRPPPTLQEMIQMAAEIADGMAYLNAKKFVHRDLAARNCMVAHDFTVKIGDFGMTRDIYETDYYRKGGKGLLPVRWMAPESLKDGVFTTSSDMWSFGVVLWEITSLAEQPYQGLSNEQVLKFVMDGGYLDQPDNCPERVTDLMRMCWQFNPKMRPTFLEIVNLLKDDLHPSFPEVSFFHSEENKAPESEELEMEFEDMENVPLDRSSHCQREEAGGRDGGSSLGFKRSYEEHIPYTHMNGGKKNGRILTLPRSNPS
PROTOCOL_DESCRIPTION: Insulin receptor affinity, SPA antibody capture assay, 0% HSA
Assay type: binding
TEST_CONDITIONS: relative to affinity of human insulin
Starred links: 1 amine or outer side, 2 acyl side, 3 side chain; linkers in the order of their positions; H or OH if unused. Positions of bridges follow the written chain, without caps; N, C: chain ends. Groups on a side chain read outwards from the residue. Chains are numbered I, II in the order given. No end group written: not given here. *: point of attachment. Phe(Nα-CONH2) = NC(=O)N[C@@H](Cc1ccccc1)C(=O)*; C20 diacid = O=C(O)CCCCCCCCCCCCCCCCCCC(=O)*; C18 diacid = O=C(O)CCCCCCCCCCCCCCCCC(=O)*; C16 diacid = O=C(O)CCCCCCCCCCCCCCC(=O)*; NMe2Phe = CN(C)[C@@H](Cc1ccccc1)C(=O)*; γGlu = O=C(O)[C@H](CCC(=O)[*:2])N[*:1]; Hydantoyl = NC(=O)NCC(=O)*; AEEA = NCCOCCOCC(=O)O; Me2Gly = CN(C)CC(=O)*
TEST_READOUT: Relative IR-A affinity (@ 0% HSA) (%)
Give bare numbers, in %.

Example entries begin here.
SUBSTANCE	UNITS_LABEL	RESULT
I: NMe2Phe-VNQHLCGSHLVEALYLVCGERGFHYPK([γGlu-C18 diacid]) / II: Me2Gly-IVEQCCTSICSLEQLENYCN (disulfide I:6-II:6, I:18-II:19, II:5-II:10) [Example 4]	%	1.7
I: NMe2Phe-VNQHLCGSHLVEALHLVCGERGFHYTPK([γGlu-C16 diacid]) / II: Me2Gly-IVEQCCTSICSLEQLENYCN (disulfide I:6-II:6, I:18-II:19, II:5-II:10) [Example 3]	%	0.6
I: {Phe(Nα-CONH2)}-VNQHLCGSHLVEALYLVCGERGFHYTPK([γGlu-C16 diacid]) / II: Hydantoyl-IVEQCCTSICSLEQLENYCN (disulfide I:6-II:6, I:18-II:19, II:5-II:10) [Example 13]	%	0.3

Now look at this one.
Output measured Relative IR-A affinity (@ 0% HSA) (%) for this item: I: {Phe(Nα-CONH2)}-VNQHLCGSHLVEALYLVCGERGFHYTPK([AEEA-AEEA-γGlu-C20 diacid]) / II: Hydantoyl-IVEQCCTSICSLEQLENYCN (disulfide I:6-II:6, I:18-II:19, II:5-II:10) [Example 15]
0.2
